Target: FAD-linked sulfhydryl oxidase ALR (Homo sapiens)
Test: ALR-catalysed DTT oxidation blockers – biochemical, H2O2 detection, HRP-luminol luminescence, single point, primary screen (AID 485317)
Conditions: purified ALR, concentration not given here
Out of some 290,000 compounds screened, about 11,000 (3.8%) were called active.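 Rule for the calls: active = mean replicate inhibition above about 79%, with every replicate also reaching it (limit read from the data); inconclusive = only one of the two criteria met; inactive = mean below limit and not every replicate reaching it.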 The sample as a whole holds a higher share of actives than the screen did.
Your reply should match one of these outcome classes. 1 for active, -1 for inactive

Asked: Assay result, entry Cc1cc(NC(=O)COc2ccc(Cl)cc2Cl)n(CCC#N)n1 — outcome?
Given back: -1

Asked: Dear all, I need the recorded test outcome for CC(C)(C)NC(=O)NCc1ccco1 , thank you.
Given back: -1

Asked: Which outcome was assigned to O=C(CCOc1ccccc1)NCc1ccccc1 in this test?
Given back: -1

Asked: Please share the test call associated with CC(=O)Nn1cc2c(=O)n(C)c(=O)n(C)c2c1 .
Given back: -1

Asked: Check the results log: what was the call for COc1cccc(OC)c1C(=O)Nc1sc2c(c1C(N)=O)CCCC2 ?
Given back: -1

Asked: Hi team, can someone confirm the assay call for COc1ccc(NC(=O)CSc2nc(SC)ns2)c(OC)c1 ?
Given back: 1

The measurements presented in this section are drawn from PubChem BioAssay AID485317.
